Cited source for all entries: patent US20110294766A1

Assay target: recombinant human GR (Homo sapiens)
Assay summary: Human Glucocorticoid Receptor (GR) Assay (fluorescence polarization, Panvera/Invitrogen kit)
Test settings: GS Red tracer, 2 hours at room temperature, 100% control 10 μM Dexamethasone, read-out: Inhibition of GR binding, IC50
IC50 for assorted molecules
Quick note: give the figure in nM, leave out the unit.

C[C@]12C=CC(=O)C=C1CC[C@@H]1[C@@H]2[C@@H](O)C[C@@]2(C)[C@H]1C[C@H]1O[C@@H](c3cccs3)O[C@]12C(=O)SCF [Example 35] = 1.1
C[C@]12C=CC(=O)C=C1[C@@H](F)C[C@H]1[C@@H]3C[C@H]4OC(c5ccc(C(F)(F)F)cc5)O[C@@]4(C(=O)SCC#N)[C@@]3(C)C[C@H](O)[C@@]12F (stereo partly drawn) [Example 20] = 2.4
C[C@]12C=CC(=O)C=C1[C@@H](F)C[C@H]1[C@@H]3C[C@H]4OC(c5cccs5)O[C@@]4(C(=O)SCF)[C@@]3(C)C[C@H](O)[C@@]12F (stereo partly drawn) [Example 15] = 1
C[C@]12C=CC(=O)C=C1[C@@H](F)C[C@H]1[C@@H]3C[C@H]4OC(c5ccc(F)cc5)O[C@@]4(C(=O)SCC#N)[C@@]3(C)C[C@H](O)[C@@]12F (stereo partly drawn) [Example 26] = 1.1
C[C@]12C=CC(=O)C=C1[C@@H](F)C[C@H]1[C@@H]3C[C@H]4OC(c5ccco5)O[C@@]4(C(=O)SCC#CCO)[C@@]3(C)C[C@H](O)[C@@]12F (stereo partly drawn) [Example 2] = 1.2

Please find the next molecule below.
# lookup: IC50 of C[C@]12C=CC(=O)C=C1[C@@H](F)C[C@H]1[C@@H]3C[C@H]4OC(c5ccc6ncccc6c5)O[C@@]4(C(=O)SCC#N)[C@@]3(C)C[C@H](O)[C@@]12F (stereo partly drawn) [Example 16]
1.5

* * *

Assay target: recombinant human GR (Homo sapiens, UniProt P04150)
Sequence (P04150 whole entry): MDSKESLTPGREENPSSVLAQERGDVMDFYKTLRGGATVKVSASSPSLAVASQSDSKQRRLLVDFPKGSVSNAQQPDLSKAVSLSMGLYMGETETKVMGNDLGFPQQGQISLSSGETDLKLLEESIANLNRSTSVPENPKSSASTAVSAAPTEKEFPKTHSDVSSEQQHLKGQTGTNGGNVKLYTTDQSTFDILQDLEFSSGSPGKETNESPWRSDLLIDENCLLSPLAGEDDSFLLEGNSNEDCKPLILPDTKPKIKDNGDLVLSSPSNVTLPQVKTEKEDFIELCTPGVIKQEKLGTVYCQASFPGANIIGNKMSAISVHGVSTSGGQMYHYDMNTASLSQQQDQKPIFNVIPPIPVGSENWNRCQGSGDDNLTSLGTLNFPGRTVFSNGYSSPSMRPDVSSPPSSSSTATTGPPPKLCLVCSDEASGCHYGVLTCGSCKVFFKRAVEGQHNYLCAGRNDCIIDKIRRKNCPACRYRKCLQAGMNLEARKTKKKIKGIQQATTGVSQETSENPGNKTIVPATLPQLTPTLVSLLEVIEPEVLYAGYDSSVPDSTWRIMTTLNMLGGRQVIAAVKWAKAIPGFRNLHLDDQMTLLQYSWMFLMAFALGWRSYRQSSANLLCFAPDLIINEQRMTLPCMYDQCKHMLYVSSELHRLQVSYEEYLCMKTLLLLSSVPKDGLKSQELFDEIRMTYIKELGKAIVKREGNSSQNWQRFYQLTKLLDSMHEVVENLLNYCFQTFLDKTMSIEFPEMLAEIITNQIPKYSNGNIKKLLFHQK
Assay summary: Human Glucocorticoid Receptor (GR) Assay (fluorescence polarization, Panvera/Invitrogen kit)
Test settings: GS Red tracer, 2 hours at room temperature, 100% control 10 μM Dexamethasone, read-out: Inhibition of GR binding, IC50
# IC50 annotations
// note: answer is a bare numeric in nM

C[C@]12C=CC(=O)C=C1CC[C@@H]1[C@@H]2[C@@H](O)C[C@@]2(C)[C@H]1C[C@H]1OC(c3ccccc3F)O[C@]12C(=O)SCC#N (some centres unmarked) = 1.5
COc1ccc([C@@H]2O[C@@H]3C[C@H]4[C@@H]5CCC6=CC(=O)C=C[C@]6(C)[C@H]5[C@@H](O)C[C@]4(C)[C@]3(C(=O)SC)O2)c(F)c1 = 2.2
Cc1ccsc1C1O[C@@H]2C[C@H]3[C@@H]4C[C@H](F)C5=CC(=O)C=C[C@]5(C)[C@@]4(F)[C@@H](O)C[C@]3(C)[C@]2(C(=O)SCF)O1 (some centres unmarked) = 0.55
C[C@]12C=CC(=O)C=C1[C@@H](F)C[C@H]1[C@@H]3C[C@H]4O[C@@H](c5ccccc5)O[C@@]4(C(=O)SCC#N)[C@@]3(C)C[C@H](O)[C@@]12F = 0.98
C[C@]12C=CC(=O)C=C1CC[C@@H]1[C@@H]2[C@@H](O)C[C@@]2(C)[C@H]1C[C@H]1OC(c3ccccc3F)O[C@]12C(=O)SCF (some centres unmarked) = 0.81

Which IC50 value is on record for C[C@]12C=CC(=O)C=C1[C@@H](F)C[C@H]1[C@@H]3C[C@H]4OC(c5ccco5)O[C@@]4(C(=O)SCC#N)[C@@]3(C)C[C@H](O)[C@@]12F (some centres unmarked) ?
1.2

Returns the measured IC50 for the input molecule. Input: C[C@]12C=CC(=O)C=C1[C@@H](F)C[C@H]1[C@@H]3C[C@H]4OC(c5cc6ccccc6o5)O[C@@]4(C(=O)SCF)[C@@]3(C)C[C@H](O)[C@@]12F (some centres unmarked)
0.86

Entry under review: Cc1ccccc1C1O[C@@H]2C[C@H]3[C@@H]4C[C@H](F)C5=CC(=O)C=C[C@]5(C)[C@@]4(F)[C@@H](O)C[C@]3(C)[C@]2(C(=O)SCF)O1 (some centres unmarked) . Reported IC50?
0.85
